- procedure_summary: Metabolic stability in ICR mouse liver microsomes assessed as compound remaining at 1 uM after 60 mins in presence of NADPH
- Format: ADME, Microsome
- condition_notes: read-out: Stability
readout_kind: remaining at 1 h, 1 µM (%)

In the examples that follow, each entry is paired with its recorded remaining at 1 h, 1 µM.
compound_string	readout_kind	result_value
O=C(CCC1=CCN(CCc2cccc3ccccc23)C1=O)NO	remaining at 1 h, 1 µM	3.9
O=C(CCC1=CCCN(CCc2ccc3ccccc3c2)C1=O)NO	remaining at 1 h, 1 µM	10.3
O=C(CCC1=CCN(CCCc2ccccc2)C1=O)NO	remaining at 1 h, 1 µM	66.6

a = O=C(CCC1=CCN(CCc2ccc3ccccc3c2)C1=O)NO
b = O=C(CCC1=CCN(CCCc2ccc3ccccc3c2)C1=O)NO
(Q) Please let me know which one, a or b , has a lower measured remaining at 1 h, 1 µM value. Could you answer with the label of the item you picked?
(A) a
